Assay: qHTS Assay for Lipid Storage Modulators in Drosophila S3 Cells;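 note: cells counted by Cell Tracker Red CMTPX staining in the red channel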
Settings: BODIPY lipid droplet fluorescence, 18-24 h, cells fed with added oleic acid; measured here: cell count max response
The campaign covered roughly 320,000 compounds. About 2,100 (0.66%) were called active. About 53% were inconclusive and are not listed. The full list was thinned out, with actives kept by preference.
parameter measured: cell number change (%)
Reply numerically in %, unit not repeated.

Past entries and their recorded results:
> print(dat)
                                   compound  result.unit  measured
1  COc1ccc(N2C(=O)NC(NC(=O)C(C)(C)C)(C(F)(F)F)C2=O)cc1 (configuration not stated)            %     -16.8
2  CCN(CC(=O)Nc1ccccc1C(F)(F)F)C(=O)c1ccc(=O)n(Cc2ccccc2)n1            %      22.5
3      CN=C1S/C(=C\c2ccc(O)c(Br)c2)C(=O)N1C            %     -7.22
4  Cc1ccc(-n2ncc(C(=O)O)c2C2CCN(C(=O)OC(C)(C)C)CC2)cc1            %     -23.6
5  C=CCNC(=S)NNC(=O)C(CC(C)C)CC(C)O (configuration not stated)            %      1.94

# input # return recorded cell number change for entry Cc1cc(C)n(-c2ccc(C(=O)NC3CCCCC3)cc2)n1
# output 17.4

# input # return recorded cell number change for entry CC1Cc2ccccc2C(CCc2ccccc2)=N1 (configuration not stated)
# output -1.48

# input # return recorded cell number change for entry CC(NC(=O)CCl)c1ccc(Cl)c(Cl)c1 (configuration not stated)
# output -24.5

# input # return recorded cell number change for entry O=C1C(=Cc2cccs2)C(=O)c2ccccc21
# output -7.62

# input # return recorded cell number change for entry CC(NC(=O)Cc1ccc(S(=O)(=O)N2CCOCC2)s1)c1ccc(Cl)c(Cl)c1 (configuration not stated)
# output -8.77

These entries and their values trace back to PubChem BioAssay AID2685.
